- Tested on: red blood cells
- testSummary: Hemolysis assay
- Format: cell-based, Sprague-Dawley mouse
Where a SMILES comes first, the peptide text is derived from it. [ ]: non-standard residue; d: D form. Gly(N(CH2)2(3-indolyl)) = O=C(O)CNCCc1c[nH]c2ccccc12; Nspe = C[C@H](NCC(=O)O)c1ccccc1; Nlys = NCCCCNCC(=O)O
quantityName: HC50 (µM)
Record the value in µM, omitting the unit from your answer.

# input Look up HC50 for this compound: C[C@@H](c1ccccc1)N(CC(=O)N(CCCCN)CC(=O)N(CC(=O)N(CC(=O)N(CCCCN)CC(=O)N(CC(=O)N(CC(=O)N(CCCCN)CC(N)=O)[C@@H](C)c1ccccc1)[C@@H](C)c1ccccc1)[C@@H](C)c1ccccc1)[C@@H](C)c1ccccc1)C(=O)CN(C(=O)CN(CCCCN)C(=O)CN(CCc1c[nH]c2ccccc12)C(=O)CNCCc1c[nH]c2ccccc12)[C@@H](C)c1ccccc1 [Peptoid 37-1] (H-[Gly(N(CH2)2(3-indolyl))][Gly(N(CH2)2(3-indolyl))][Nlys][Nspe][Nspe][Nlys][Nspe][Nspe][Nlys][Nspe][Nspe][Nlys]-NH2)
# output 56.5

###

Answer each item with its documented HC50.
- Tested on: red blood cells
- testSummary: Hemolysis assay
- Assay type: cell-based, Sprague-Dawley mouse
Where a SMILES comes first, the peptide text is derived from it. [ ]: non-standard residue; d: D form. Nspe = C[C@H](NCC(=O)O)c1ccccc1; Nlys = NCCCCNCC(=O)O
Record the value in µM, omitting the unit from your answer.

# input Test system red blood cells; read-out HC50; what value for C[C@@H](c1ccccc1)N(CC(N)=O)C(=O)CN(C(=O)CN(CCCCN)C(=O)CN(C(=O)CN(C(=O)CN(CCCCN)C(=O)CN(C(=O)CN(C(=O)CN(CCCCN)C(=O)CN(CCc1c[nH]c2ccccc12)C(=O)CN(C(=O)CNCCCCN)[C@@H](C)c1ccccc1)[C@@H](C)c1ccccc1)[C@@H](C)c1ccccc1)[C@@H](C)c1ccccc1)[C@@H](C)c1ccccc1)[C@@H](C)c1ccccc1 [Peptoid 10-2] ?
# output 29.4

# input Test system red blood cells; read-out HC50; what value for C[C@H](NCC(=O)N(CCCCN)CC(=O)N(CC(=O)N(CC(=O)N(CCCCN)CC(=O)N(CC(=O)N(CC(=O)N(CCCCN)CC(=O)N(CC(=O)N(CC(=O)N(CCCCN)CC(=O)N(CC(N)=O)[C@@H](C)c1ccccc1)[C@@H](C)c1ccccc1)[C@@H](C)c1ccccc1)[C@@H](C)c1ccccc1)[C@@H](C)c1ccccc1)[C@@H](C)c1ccccc1)[C@@H](C)c1ccccc1)c1ccccc1 [Peptoid 48] (H-[Nspe][Nlys][Nspe][Nspe][Nlys][Nspe][Nspe][Nlys][Nspe][Nspe][Nlys][Nspe]-NH2) ?
# output 48.4

###

Answer each item with its documented HC10.
- Tested on: red blood cells
- testSummary: Hemolysis assay
- Format: cell-based, Sprague-Dawley mouse
- Description: To confirm cytotoxicity by the hemolytic activity of each peptoid synthesized in Example 1, hemolysis analysis was performed. […] A supernatant was obtained and transferred to a new 96-well plate at 150 μL, and absorbance was measured using a spectrophotometer at 540 nm. Percent hemolysis may be calculated by the following Equation 1, and the corresponding results are shown in Tables 11 to 13. % Hemolysis=(A−C)/(B−C)×100 [Equation 1] […]
Where a SMILES comes first, the peptide text is derived from it. [ ]: non-standard residue; d: D form. Gly(N(CH2)2(3-indolyl)) = O=C(O)CNCCc1c[nH]c2ccccc12; Nspe = C[C@H](NCC(=O)O)c1ccccc1; Nlys = NCCCCNCC(=O)O

# input Look up HC10 for this molecule: C[C@@H](c1ccccc1)N(CC(=O)N(CCCCN)CC(=O)N(CC(=O)N(CC(=O)N(CCCCN)CC(=O)N(CC(=O)N(CC(=O)N(CCCCN)CC(N)=O)[C@@H](C)c1ccccc1)[C@@H](C)c1ccccc1)[C@@H](C)c1ccccc1)[C@@H](C)c1ccccc1)C(=O)CN(C(=O)CN(CCCCN)C(=O)CN(CCc1c[nH]c2ccccc12)C(=O)CNCCc1c[nH]c2ccccc12)[C@@H](C)c1ccccc1 [Peptoid 37-1] (H-[Gly(N(CH2)2(3-indolyl))][Gly(N(CH2)2(3-indolyl))][Nlys][Nspe][Nspe][Nlys][Nspe][Nspe][Nlys][Nspe][Nspe][Nlys]-NH2)
# output 14.4 µM

# input Look up HC10 for this molecule: C[C@@H](c1ccccc1)N(CC(N)=O)C(=O)CN(C(=O)CN(CCCCN)C(=O)CN(C(=O)CN(CCc1c[nH]c2ccccc12)C(=O)CN(CCCCN)C(=O)CN(CCc1c[nH]c2ccccc12)C(=O)CN(C(=O)CN(CCCCN)C(=O)CN(C(=O)CN(C(=O)CNCCCCN)[C@@H](C)c1ccccc1)[C@@H](C)c1ccccc1)[C@@H](C)c1ccccc1)[C@@H](C)c1ccccc1)[C@@H](C)c1ccccc1 [Peptoid 15-2]
# output 39.2 µM
